- Tested on: A549
- method.summary: NCI tumour cell line growth inhibition, 48 h
The source made the active and inactive calls. Cut-off read from the data, not from the text of the source: active = GI50 up to about 1.1 µM and inactive = higher.
result.type: GI50

Some molecules with known GI50 results, for comparison:
[[record]]
molecule = "O=C(O)/C=N\\N=c1[nH]c2ccccc2[nH]1"
test_value = "> 100 µM (inactive)"

[[record]]
molecule = "c1ccc(SCCP(CCP(c2ccccc2)c2ccccc2)c2ccccc2)cc1 (stereo not given)"
test_value = "6.17 µM (inactive)"

[[record]]
molecule = "O=S(=O)(O)c1ccccc1/N=N\\c1ccc(/N=N/c2c(O)ccc3ccccc23)c(S(=O)(=O)O)c1"
test_value = "> 100 µM (inactive)"

[[record]]
molecule = "COc1c(OC)c(OC)c2c(=O)c(OC)c(-c3ccc4c(c3)OCO4)oc2c1OC"
test_value = "53.2 µM (inactive)"

[[record]]
molecule = "COC1OC(CBr)C(OC(=O)c2ccccc2)C(OS(=O)(=O)c2ccc(C)cc2)C1Br (stereo not given)"
test_value = "> 100 µM (inactive)"

[[record]]
molecule = "CCCCCCC(C)CCCCCCCCCCC(=O)O (stereo not given)"
test_value = "> 100 µM (inactive)"


Quote GI50 reported for COc1cc(/C=C/c2cccnc2)cc(OC)c1OC please.
> 100 µM (inactive)

Quote GI50 reported for COC(=O)/C=C1/OC(c2ccccc2)=C(Cl)C1=O please.
26.4 µM (inactive)

Quote GI50 reported for COC(=O)C1(NC(=O)C(N)CC(=O)O)C(C)C1C (stereo not given) please.
> 100 µM (inactive)

Quote GI50 reported for CC(C)CCCC(C)[C@H]1CCC2[C@H]3C(CC[C@@]21C)[C@@]1(C)CCC=C[C@]12C[C@@H]2[C@@H]3O (stereo not given in full) please.
> 100 µM (inactive)
